System: EKVX NSCLC
Experiment: NCI-60 one-dose screen, 48 h (100 = growth as untreated, 0 = no growth, -100 = all killed)
Conditions: 10 µM unless noted
This is part of a sample that, as a whole, favours compounds with a hit. Of some 83,000 tested, about 20% had one in any assay.
property.measured: growth (%)

In [3]: df
Out[3]:
                                   compound  tested_system  property_measured  uom  recorded_number
0  C=CC(=O)N1CCC[C@@H](n2nc(-c3ccc(Oc4ccccc4)cc3)c3c(N)ncnc32)C1     EKVX NSCLC             growth    %             52.8
1  CCN(CC)C(=O)C[N+](C)(C)CCOC(c1ccccc1)c1ccccc1     EKVX NSCLC             growth    %              100
2  CC(C)(C)OC(=O)N1CCC(O)[C@@H](O[Si](c2ccccc2)(c2ccccc2)C(C)(C)C)[C@H]1/C=C/c1ccccc1 (some centres undefined)     EKVX NSCLC             growth    %             40.7
3  COC[C@@H](C)n1c(C2CCOCC2)nc2c1C1C=C(OC)C(c3c(C)noc3C)=CC1N=C2 (some centres undefined)     EKVX NSCLC             growth    %             56.9
4  COc1cc2c(cc1OCCCCCN1CCN(c3ncnc4ccccc34)CC1)N=CC1CCCN1C2=O (centres undefined)     EKVX NSCLC             growth    %            -41.5
5  Nc1nc(N)c2cc(CNc3ccc(C(=O)NC(CC(=O)O)C(=O)O)cc3)ccc2n1 (centres undefined)     EKVX NSCLC             growth    %             43.2
6  O=[N+]([O-])c1cc(Br)cc2c1[nH]c1ccc(Br)cc12     EKVX NSCLC             growth    %             60.2
7  O=C(Nc1ccc(C(=O)Nc2ccc(C3=NCCCN3)cc2)cc1)Nc1ccc(C2=NCCCN2)cc1     EKVX NSCLC             growth    %             61.4
8  CCn1cc(-c2ccnc3[nH]c(-c4cccc(CN(C)C)c4)cc23)c(-c2ccc(NC(=O)N(C)C)cc2)n1     EKVX NSCLC             growth    %             55.4

====

Tested on: NCI-H522 lung
Test: NCI-60 one-dose screen, 48 h
Details: 10 µM unless noted
The panel holds about 83,000 compounds, 20% with a hit somewhere; the sample as a whole holds those more often. Activity calls are given as the source filed them. The calls were made as follows: active = growth percent below 10; inactive = the rest.
Outcomes: active, inactive

                                   compound  tested_system  assigned_class
0  COc1cccc(Nc2ncnn3ccc(CN4CC[C@@H](N)[C@H](O)C4)c23)c1  NCI-H522 lung        inactive
1  CC[C@@H]1C(=O)N(C)c2cnc(Nc3ccc(C(=O)NC4CCN(C)CC4)cc3OC)nc2N1C1CCCC1  NCI-H522 lung          active
2      CCN(CCN(C)C)C(=O)CNCc1cc(C(N)=O)ccn1  NCI-H522 lung        inactive
3  CCN(CC)CCN1C(=O)c2cccc3c(-c4ccc5c(c4)ncn5C4CCCCC4)ccc(c23)C1=O  NCI-H522 lung        inactive
4  COc1ccc(-c2cnc(-c3ccc(Cl)cc3)[nH]2)cc1OC  NCI-H522 lung        inactive
5  CC(=O)c1c(C)c2cnc(Nc3ccc(N4CCNCC4)cn3)nc2n(C2CCCC2)c1=O  NCI-H522 lung          active
6  COc1cc2nccc(Oc3ccc(NC(=O)Nc4cc(C)on4)c(Cl)c3)c2cc1OC  NCI-H522 lung        inactive
7  COc1cc2c(cc1OCCCCN1CCN(CC(=O)Nc3ccc(Cl)cc3C(=O)c3ccccc3Cl)CC1)N=CC1CCCN1C2=O (centres undefined)  NCI-H522 lung          active
8  CCN(CC)CCNC(=O)c1c(C)[nH]c(/C=C2\C(=O)Nc3ccc(F)cc32)c1C  NCI-H522 lung          active

Hey, just so you know, these numbers are from PubChem BioAssay (NCI).
